- Tested on: Mus musculus
- protocol-notes: Toxicity in carrageenan treated Albino mouse liver assessed as fatty change at 100 mg/kg, po administered 1 hr before carrageenan challenge measured after 4 hrs by hematoxilen eosine staining
- Type: organism-based
- Set-up: dose 100 mg/kg, route oral
- experimental-context: in vivo
measured-metric: Activity

Cc1cc(C(=O)c2ccc(Cl)cc2Cl)ccc1OCCN1CCCCC1; Non-toxic
COc1ccc(C(=O)c2ccc(OCCN3CCCCC3)c(C)c2)cc1; Non-toxic
Cc1cc(C(=O)c2ccc(Br)cc2)ccc1OCCN1CCCCC1; Non-toxic
Cc1ccc(C(=O)c2ccc(OCCN3CCCCC3)c(C)c2)cc1; Non-toxic
Cc1cc(C(=O)c2ccccc2Br)ccc1OCCN1CCCCC1; Non-toxic
Cc1cc(C(=O)c2ccc(F)cc2)ccc1OCCN1CCCCC1; Non-toxic
